- Tgt: recombinant human NaV1.8 stably transfected HEK cells (Homo sapiens)
- Construct: expressed in transfected cells; host or cells: HEK cells, stably transfected
- Experiment summary: Compound profiling on NaV1.8, human NaV1.8 cell line, SyncroPatch384PE automated patch clamp assay (Example 115, third set of compounds, Table 27)
- Type: cell-based
- Applied conditions: resting state block (P1 measurement), human NaV1.8 HEK cells, Table 27 (third set of compounds), read-out: P1 IC50
pIC50: −log10 of the molar value.
pIC50 reference

Inquiry: GET /values?readout=pIC50&item= `Cc1cc(Br)ccc1Oc1nnc(C(F)(F)F)cc1C(=O)Nc1ccc(C(N)=O)cc1`
Reply text: ≥ 6.70

Inquiry: What about `Cc1cc(Br)ccc1Oc1nnc(C(F)(F)F)cc1C(=O)Nc1cccc(S(C)(=O)=O)c1` ?
Reply text: ≥ 6.70

Inquiry: Also `COc1cc(F)ccc1Oc1nnc(C(F)(F)F)cc1C(=O)Nc1ccnc(S(N)(=O)=O)c1` ?
Reply text: ≥ 6.70

Inquiry: And what about the compound `COc1ccc(F)cc1Oc1nnc(C(F)(F)F)cc1C(=O)Nc1cccc(S(N)(=O)=O)c1` ?
Reply text: 6.00 to 6.30

Inquiry: Follow-up entry: `COc1cc(F)ccc1Oc1nnc(C(F)(F)F)cc1C(=O)Nc1cncc(C(N)=O)n1`
Reply text: < 5.30

====

- Tgt: recombinant human NaV1.8 stably transfected HEK cells (Homo sapiens, UniProt Q9Y5Y9)
- Construct: expressed in transfected cells; host or cells: HEK cells, stably transfected
- Sequence (Q9Y5Y9 whole entry): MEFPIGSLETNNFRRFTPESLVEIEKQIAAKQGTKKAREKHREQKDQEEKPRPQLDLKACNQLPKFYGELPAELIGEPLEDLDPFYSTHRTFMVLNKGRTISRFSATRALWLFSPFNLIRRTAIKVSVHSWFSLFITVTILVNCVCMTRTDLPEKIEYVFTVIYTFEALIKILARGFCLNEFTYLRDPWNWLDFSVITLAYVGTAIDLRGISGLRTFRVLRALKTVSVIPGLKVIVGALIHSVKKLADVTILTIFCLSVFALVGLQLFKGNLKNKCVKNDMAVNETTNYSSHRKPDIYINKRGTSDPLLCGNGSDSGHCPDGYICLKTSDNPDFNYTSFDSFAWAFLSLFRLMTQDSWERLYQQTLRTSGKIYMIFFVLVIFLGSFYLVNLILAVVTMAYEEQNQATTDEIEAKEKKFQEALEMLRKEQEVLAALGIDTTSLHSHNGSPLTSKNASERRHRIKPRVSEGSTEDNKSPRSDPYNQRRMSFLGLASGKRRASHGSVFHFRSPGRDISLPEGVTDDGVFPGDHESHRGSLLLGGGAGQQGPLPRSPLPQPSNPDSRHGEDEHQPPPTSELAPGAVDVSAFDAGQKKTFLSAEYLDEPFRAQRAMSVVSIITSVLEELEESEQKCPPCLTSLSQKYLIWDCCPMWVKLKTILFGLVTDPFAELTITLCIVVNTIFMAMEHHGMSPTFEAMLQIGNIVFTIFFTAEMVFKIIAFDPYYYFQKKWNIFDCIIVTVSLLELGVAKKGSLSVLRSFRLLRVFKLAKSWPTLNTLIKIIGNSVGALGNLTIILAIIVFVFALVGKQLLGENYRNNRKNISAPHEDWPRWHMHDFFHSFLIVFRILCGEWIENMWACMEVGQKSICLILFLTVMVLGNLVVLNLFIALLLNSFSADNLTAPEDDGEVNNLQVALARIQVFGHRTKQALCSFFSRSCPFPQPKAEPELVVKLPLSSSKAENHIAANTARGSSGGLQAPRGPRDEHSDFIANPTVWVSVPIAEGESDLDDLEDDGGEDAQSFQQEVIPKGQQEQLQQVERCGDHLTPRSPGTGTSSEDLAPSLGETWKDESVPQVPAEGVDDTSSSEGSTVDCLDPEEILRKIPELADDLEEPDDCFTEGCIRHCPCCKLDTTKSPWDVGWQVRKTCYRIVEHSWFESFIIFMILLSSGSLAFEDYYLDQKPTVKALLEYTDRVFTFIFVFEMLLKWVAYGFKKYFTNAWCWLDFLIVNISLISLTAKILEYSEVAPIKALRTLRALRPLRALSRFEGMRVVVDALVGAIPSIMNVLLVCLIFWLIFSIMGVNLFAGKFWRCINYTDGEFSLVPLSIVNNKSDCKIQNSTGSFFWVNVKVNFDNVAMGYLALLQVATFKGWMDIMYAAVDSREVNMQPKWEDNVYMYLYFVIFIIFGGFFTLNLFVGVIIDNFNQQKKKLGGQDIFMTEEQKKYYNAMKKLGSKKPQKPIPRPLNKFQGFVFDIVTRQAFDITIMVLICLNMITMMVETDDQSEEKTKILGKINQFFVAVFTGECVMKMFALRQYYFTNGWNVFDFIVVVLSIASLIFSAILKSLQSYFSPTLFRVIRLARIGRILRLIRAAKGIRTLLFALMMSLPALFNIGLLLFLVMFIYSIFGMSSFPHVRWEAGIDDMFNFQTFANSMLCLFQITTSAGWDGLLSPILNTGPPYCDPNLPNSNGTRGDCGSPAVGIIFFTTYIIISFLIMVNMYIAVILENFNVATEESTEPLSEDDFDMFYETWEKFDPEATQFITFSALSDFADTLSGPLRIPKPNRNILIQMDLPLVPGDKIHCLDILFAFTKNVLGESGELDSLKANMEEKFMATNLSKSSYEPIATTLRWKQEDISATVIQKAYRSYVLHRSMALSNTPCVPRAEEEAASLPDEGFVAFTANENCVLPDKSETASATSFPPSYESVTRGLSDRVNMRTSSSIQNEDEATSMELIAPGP
- Experiment summary: Compound profiling on NaV1.8, human NaV1.8 cell line, SyncroPatch384PE automated patch clamp assay (Example 115, third set of compounds, Table 27)
- Format: cell-based
- Applied conditions: resting state block (P1 measurement), human NaV1.8 HEK cells, Table 27 (third set of compounds), read-out: P1 IC50
Let's look at some compounds and their measured IC50.

Study these solved cases before continuing.
INSERT INTO measurements (compound_string, value) VALUES
  ('Cc1ccc(F)cc1Oc1nnc(C(F)(F)F)cc1C(=O)Nc1cccc(S(C)(=O)=O)c1', '0.501 to 1 µM'),
  ('COC(=O)c1cncc(NC(=O)c2cc(C(F)(F)F)nnc2Oc2ccc(F)cc2OC)n1', '> 5 µM');

Inquiry: Recorded IC50 for `CS(=O)(=O)c1cccc(NC(=O)c2cc(C(F)(F)F)nnc2Oc2ccc(F)cc2Cl)n1` with recombinant human NaV1.8 stably transfected HEK cells (Homo sapiens, UniProt Q9Y5Y9), please?
Reply text: > 5 µM

Inquiry: Cool, now `CS(=O)(=O)c1ccc(F)c(NC(=O)c2cc(C(F)(F)F)nnc2Oc2ccc(F)cc2Cl)c1`
Reply text: ≤ 0.2 µM

====

- Tgt: recombinant human NaV1.8 stably transfected HEK cells (Homo sapiens, UniProt Q9Y5Y9)
- Construct: expressed in transfected cells; host or cells: HEK cells, stably transfected
- Experiment summary: Compound profiling on NaV1.8, human NaV1.8 cell line, SyncroPatch384PE automated patch clamp assay (Example 102, first set of compounds, Table 16)
- Type: cell-based
- Applied conditions: inactivated state block (P2 measurement), human NaV1.8 HEK cells, Table 16 (first set of compounds), read-out: P2IC50
pIC50: −log10 of the molar value.
Quantity: pIC50

Example cases with answers are listed next.
INSERT INTO measurements (molecule, quantity, value) VALUES
  ('COc1cc(F)c(F)cc1Oc1ncc(C(F)(F)F)cc1C(=O)Nc1cccc(S(C)(=O)=O)c1', 'pIC50', '≥ 7.70'),
  ('COc1c(Oc2nnc(C(F)(F)F)c(C)c2C(=O)Nc2cccnc2)ccc(F)c1F', 'pIC50', '≥ 7.70'),
  ('Cc1nc(F)ccc1Oc1ncc(C(F)(F)F)cc1C(=O)Nc1cccc(S(C)(=N)=O)c1 (centres unmarked)', 'pIC50', '6.70 to 7.40'),
  ('Cc1cc(F)ccc1Oc1nnc(C2CC2)c(C)c1C(=O)Nc1cccc(S(C)(=N)=O)c1 (centres unmarked)', 'pIC50', '6.70 to 7.40'),
  ('COc1c(Oc2ncc(Br)cc2C(=O)Nc2cccc(C(N)=O)c2)ccc(F)c1F', 'pIC50', '7.40 to 7.70');

Inquiry: # returns recorded pIC50 (system: recombinant human NaV1.8 stably transfected HEK cells (Homo sapiens, UniProt Q9Y5Y9)) for `COc1cc(C#N)ccc1Oc1nnc(C(F)(F)F)c(C)c1C(=O)Nc1ccc(C(N)=O)cc1`
Reply text: ≥ 7.70

Inquiry: Now the same for `Cc1cc(OC(F)(F)F)ccc1Oc1ncc(C(F)(F)F)cc1C(=O)Nc1cccc(S(C)(=O)=O)c1`
Reply text: ≥ 7.70

Inquiry: Another molecule to check: `COc1cc(C#N)ccc1Oc1nnc(C(F)(F)F)c(C)c1C(=O)Nc1cncc(C#N)c1`
Reply text: 6.70 to 7.40

====

Listed here are compounds together with their documented pIC50.
- Tgt: recombinant human NaV1.8 stably transfected HEK cells (Homo sapiens, UniProt Q9Y5Y9)
- Construct: expressed in transfected cells; host or cells: HEK cells, stably transfected
- Experiment summary: Compound profiling on NaV1.8, human NaV1.8 cell line, SyncroPatch384PE automated patch clamp assay (Example 102, first set of compounds, Table 16)
- Type: cell-based
- Applied conditions: inactivated state block (P2 measurement), human NaV1.8 HEK cells, Table 16 (first set of compounds), read-out: P2IC50
- Experimental: Compound Profiling on NaV1.8—Human NaV1.8 Cell Line—SyncroPatch384PE Assay Compounds were tested on recombinant human NaV1.8 stably transfected HEK cells using the SyncroPatch384PE system, an automated patch clamp device. […] Compounds were tested in triplicate in 0.1% DMSO and 0.030% Pluronic Acid. […] Compounds were then applied by the SynchroPatch into each well and the current was recorded for five minutes in EC, followed by application of tetracaine to achieve full block at the end of the experiment. […]
pIC50: −log10 of the molar value.

Inquiry: For the compound Cc1c(C(F)(F)F)nnc(Oc2ccc(Cl)cc2F)c1C(=O)Nc1cccc(S(C)(=N)=O)c1 (single isomer, unassigned) [Compound 1471] , what pIC50 is on record?
Reply text: ≥ 7.70

Inquiry: Further, for CS(=O)(=O)c1cccc(NC(=O)c2cc(C(F)(F)F)cnc2Oc2ccc(OC(F)(F)F)cc2F)c1 [Compound 1661] ?
Reply text: ≥ 7.70

Inquiry: Consider next the compound COc1ccc(Oc2nnc(C(F)(F)F)c(C)c2C(=O)Nc2cccc(S(C)(=N)=O)c2)c(C)n1 (single isomer, unassigned) [Compound 1508] in the same way.
Reply text: 6.70 to 7.40

====

- Tgt: recombinant human NaV1.8 stably transfected HEK cells (Homo sapiens)
- Construct: expressed in transfected cells; host or cells: HEK cells, stably transfected
- Experiment summary: Compound profiling on NaV1.8, human NaV1.8 cell line, SyncroPatch384PE automated patch clamp assay (Example 102, first set of compounds, Table 16)
- Format: cell-based
- Applied conditions: inactivated state block (P2 measurement), human NaV1.8 HEK cells, Table 16 (first set of compounds), read-out: P2IC50
pIC50: −log10 of the molar value.
Quantity: pIC50

Solved entries (count: 3):
INSERT INTO results (molecule, quantity, value) VALUES
  ('COc1ccc(Oc2nnc(C(F)(F)F)c(C)c2C(=O)Nc2cccc(S(C)(=N)=O)c2)c(C)c1F (single isomer, unassigned) [Compound 1505]', 'pIC50', '≥ 7.70'),
  ('Cc1c(C(F)(F)F)nnc(Oc2ccc(OC(F)(F)F)cc2F)c1C(=O)Nc1cccc(S(C)(=O)=O)c1 [Compound 1467]', 'pIC50', '≥ 7.70'),
  ('COc1cc(C#N)ccc1Oc1ncc(C2=CCOCC2)cc1C(=O)Nc1cccc(S(C)(=N)=O)c1 (stereo not shown) [Compound 1726]', 'pIC50', '6.30 to 6.70');

Inquiry: Using the record for COCCNC(=O)c1cccc(NC(=O)c2c(Oc3ccc(C#N)cc3OC)nnc(C(F)(F)F)c2C)c1 [Compound 1443] , report its pIC50.
Reply text: 6.30 to 6.70

Inquiry: Further, for CC(C)Oc1ccc(Oc2ncc(C(F)(F)F)cc2C(=O)Nc2cccc(C(N)=O)c2)c(F)c1F [Compound 1709] ?
Reply text: 7.40 to 7.70

Inquiry: Request: Cc1ccc(Oc2nnc(C(F)(F)F)c(C)c2C(=O)Nc2cccc(S(C)(=N)=O)c2)c(C)n1 (single isomer, unassigned) [Compound 1484]
Reply text: 6.30 to 6.70

Inquiry: Try this molecule next: NC(=O)c1cccc(NC(=O)c2cc(C(F)(F)F)cnc2OC23CC(C(F)(F)F)(C2)C3)c1 [Compound 1634]
Reply text: 6.30 to 6.70

====

# pIC50 annotations
- Tgt: recombinant human NaV1.8 stably transfected HEK cells (Homo sapiens, UniProt Q9Y5Y9)
- Construct: expressed in transfected cells; host or cells: HEK cells, stably transfected
- Experiment summary: Compound profiling on NaV1.8, human NaV1.8 cell line, SyncroPatch384PE automated patch clamp assay (Example 115, third set of compounds, Table 27)
- Type: cell-based
- Applied conditions: resting state block (P1 measurement), human NaV1.8 HEK cells, Table 27 (third set of compounds), read-out: P1 IC50
pIC50: −log10 of the molar value.

Inquiry: Form entry - test system: recombinant human NaV1.8 stably transfected HEK cells (Homo sapiens, UniProt Q9Y5Y9); read-out: pIC50; molecule: `COc1cc(F)ccc1Oc1nnc(C(F)(F)F)cc1C(=O)Nc1cc(C#N)cnn1`
Reply text: < 5.30

Sourced from patent US20240336574A1
